Below are compounds with their pIC50 as measured on UniProt:P00533.
Sequence (P00533 whole entry): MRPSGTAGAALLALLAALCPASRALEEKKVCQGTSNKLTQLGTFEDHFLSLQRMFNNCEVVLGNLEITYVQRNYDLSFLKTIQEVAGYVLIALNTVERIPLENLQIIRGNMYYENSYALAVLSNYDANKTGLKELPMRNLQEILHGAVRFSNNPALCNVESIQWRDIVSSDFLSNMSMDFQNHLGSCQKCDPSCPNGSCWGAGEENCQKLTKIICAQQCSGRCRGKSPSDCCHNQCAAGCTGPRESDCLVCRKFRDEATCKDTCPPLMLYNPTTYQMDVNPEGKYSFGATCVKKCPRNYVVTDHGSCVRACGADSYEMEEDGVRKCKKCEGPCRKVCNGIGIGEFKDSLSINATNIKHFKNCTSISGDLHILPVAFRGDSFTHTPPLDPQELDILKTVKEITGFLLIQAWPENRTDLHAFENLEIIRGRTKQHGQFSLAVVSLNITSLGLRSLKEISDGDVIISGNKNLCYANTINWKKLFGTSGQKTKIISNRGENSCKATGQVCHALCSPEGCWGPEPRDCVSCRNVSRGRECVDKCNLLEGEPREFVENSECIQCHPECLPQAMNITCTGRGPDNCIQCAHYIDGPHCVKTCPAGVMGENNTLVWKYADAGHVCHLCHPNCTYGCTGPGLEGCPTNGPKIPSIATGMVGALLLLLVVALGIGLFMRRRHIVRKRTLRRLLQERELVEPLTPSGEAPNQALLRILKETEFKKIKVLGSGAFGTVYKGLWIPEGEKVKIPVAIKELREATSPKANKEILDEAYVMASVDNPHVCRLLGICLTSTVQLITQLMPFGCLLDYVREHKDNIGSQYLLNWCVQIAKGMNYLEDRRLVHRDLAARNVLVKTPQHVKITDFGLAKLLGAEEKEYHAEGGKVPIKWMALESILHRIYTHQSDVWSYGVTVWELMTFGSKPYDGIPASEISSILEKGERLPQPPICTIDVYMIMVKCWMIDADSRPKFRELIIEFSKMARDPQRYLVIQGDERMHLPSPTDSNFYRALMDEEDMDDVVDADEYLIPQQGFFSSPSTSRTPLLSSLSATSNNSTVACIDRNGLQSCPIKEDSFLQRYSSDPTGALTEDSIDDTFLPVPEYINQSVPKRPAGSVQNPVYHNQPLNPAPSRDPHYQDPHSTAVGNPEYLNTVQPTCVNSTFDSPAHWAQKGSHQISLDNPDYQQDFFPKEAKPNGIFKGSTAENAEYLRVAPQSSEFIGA
Kindly note that pIC50 refers to -log10 of the concentration in mol/L and answer with the value alone.

structure=CCOc1cc2ncnc(C#C[C@@](C)(Cc3ccccc3)N3CCC(C(=O)O)CC3)c2cc1OCC readout_label=pIC50 val=8.38

*Q* Query for UniProt:P00533: what pIC50 does the record show for `COc1cc2ncnc(/C=C/CCc3ccccc3)c2cc1OC` ?
*A* 8.40

*Q* Look up pIC50 with UniProt:P00533 for this compound: `COc1cc2ncnc(C#CCOc3ccccc3)c2cc1OC`
*A* 7.82

*Q* Quick check: pIC50 on UniProt:P00533, item `CCN(CC)[C@@](C)(C#Cc1ncnc2cc(OC)c(OC)cc12)c1ccccc1` ?
*A* 5.14

*Q* Requested read-out pIC50, target or system UniProt:P00533, entry `CCOc1cc2ncnc(C#Cc3c[nH]nc3-c3ccc(F)cc3)c2cc1OCC`
*A* 8.74

*Q* Checklist item: pIC50 tested on UniProt:P00533, entry `CCOc1cc2ncnc(C#Cc3nccn3-c3ccccc3)c2cc1OCC` , value?
*A* 7.92

*Q* Record `COc1cc2ncnc(C#CCCc3ccccc3)c2cc1OC` : what is its pIC50 with UniProt:P00533?
*A* 7.85

*Q* Which measured pIC50 belongs to `CCN(CC)[C@@](C)(C#Cc1ncnc2cc(OC)c(OC)cc12)CC1CCCCC1` , tested on UniProt:P00533?
*A* 5.96

*Q* Look up pIC50 with UniProt:P00533 for this compound: `CCOc1cc2ncnc(C#C[C@](C)(Cc3ccccc3)N3CCC(C(=O)O)CC3)c2cc1OCC`
*A* 6.18

*Q* // map `CCOc1cc2ncnc(/C=C/CCc3ccccc3)c2cc1OCC` to recorded pIC50 (system: UniProt:P00533)
*A* 8.30

Data origin: ChEMBL document CHEMBL1140492
